Measured values drawn from patent US20200377510A1 for this set.

- ASSAY PROTOCOL: In vivo pharmacokinetic analysis (plasma)
- MEASUREMENT PARAMETERS: female, Balb/C, mouse, plasma; mice, IP, 10 mg/kg; read-out: Plasma half-life t1/2 (converted)
PROPERTY MEASURED: half-life (h)
Give the number; h is assumed, so skip it.

Given COc1cc(/C=C/C(=O)N2CCC=CC2=O)cc2c1OCCO2 , respond with its half-life.
1.14

----------
- ASSAY PROTOCOL: In vivo pharmacokinetic analysis (plasma)
- MEASUREMENT PARAMETERS: female, Balb/C, mouse, plasma; mice, IV, 5 mg/kg; read-out: Plasma half-life t1/2 (converted)
PROPERTY MEASURED: half-life (h)
Give the number; h is assumed, so skip it.

Given COc1cc(/C=C/C(=O)N2CCC=CC2=O)cc2c1OCCO2 , respond with its half-life.
1.66
